Target: TEC (Homo sapiens, UniProt P42680)
Assay: Inhibition of a panel of kinases (in vitro HotSpot kinase assay, 33P-ATP, 1 μM ATP)
Format: biochemical
Details: ratio of TEC IC50 to Btk IC50 (selectivity)
Binary label based on TEC/Btk with cut-off 200: below gives 1 (yes), not below gives 0 (no).

As a guide, the following entries are already answered.
1) CC(C)(C)c1nc(C(=O)NCc2ccc(-c3ccnc4[nH]nc(N[C@@H]5CCNC5)c34)cc2F)co1	0 (no)
2) C[C@@H](NC(=O)c1nc(C(C)(C)C)no1)c1ccc(-c2ccnc3[nH]nc(C4CCN(C(=O)N(C)C)CC4)c23)cc1	0 (no)
3) C[C@H]1CC[C@@H](Nc2n[nH]c3nccc(-c4ccc(CN5CCn6c(cc7c6CCCC7)C5=O)c(F)c4)c23)CN1C(=O)N(C)C	0 (no)

Ask: TEC/Btk under 200? Item: C=CC(=O)N1CC[C@@H](Nc2n[nH]c3nccc(-c4ccc(CNC(=O)c5ccn(C(C)(C)C)n5)c(F)c4)c23)C1
Result: 0 (no)

Ask: hey, is TEC/Btk for C=CC(=O)N1CC=C(c2n[nH]c3nccc(-c4ccc(CNC(=O)c5noc(C(C)(C)C)n5)c(F)c4)c23)C1 lower than 200 or not?
Result: 1 (yes)

Ask: Is TEC/Btk of C=CC(=O)N1CC[C@@H](Nc2n[nH]c3nccc(-c4ccc(C5(NC(=O)c6noc(C(C)(C)C)n6)CC5)cc4)c23)C1 strictly below 200?
Result: 1 (yes)

----------
Target: TEC (Homo sapiens, UniProt P42680)
Sequence (P42680 1-631): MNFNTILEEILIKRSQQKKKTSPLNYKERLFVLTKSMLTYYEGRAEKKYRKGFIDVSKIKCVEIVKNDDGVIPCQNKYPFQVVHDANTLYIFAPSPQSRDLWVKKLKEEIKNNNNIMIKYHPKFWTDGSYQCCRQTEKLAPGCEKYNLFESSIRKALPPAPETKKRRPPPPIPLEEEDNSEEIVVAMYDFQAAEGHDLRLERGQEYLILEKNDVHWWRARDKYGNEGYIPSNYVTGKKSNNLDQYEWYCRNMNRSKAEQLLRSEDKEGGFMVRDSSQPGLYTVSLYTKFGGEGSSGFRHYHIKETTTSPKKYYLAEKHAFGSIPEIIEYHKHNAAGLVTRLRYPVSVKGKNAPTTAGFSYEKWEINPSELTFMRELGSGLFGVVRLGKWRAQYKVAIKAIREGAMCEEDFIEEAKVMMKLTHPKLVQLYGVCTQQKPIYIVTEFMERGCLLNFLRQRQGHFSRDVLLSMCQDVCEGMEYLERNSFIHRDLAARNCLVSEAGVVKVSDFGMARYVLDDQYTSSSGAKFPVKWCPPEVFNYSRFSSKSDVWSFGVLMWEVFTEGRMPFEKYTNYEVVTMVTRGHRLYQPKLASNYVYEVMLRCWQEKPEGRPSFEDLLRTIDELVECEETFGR
Assay: Inhibition of a panel of kinases (in vitro HotSpot kinase assay, 33P-ATP, 1 μM ATP)
Assay type: biochemical
Settings: ratio of TEC IC50 to Btk IC50 (selectivity)
Please note: criterion met applies when TEC/Btk is 200 or greater, and criterion not met applies otherwise.

Previously resolved entries follow.
1) CCC(=O)N1CC[C@@H](Nc2n[nH]c3nccc(-c4ccc(C5(NC(=O)c6noc(C(C)(C)C)n6)CC5)cc4)c23)C1	criterion not met
2) C=CC(=O)NC1CCN(c2n[nH]c3nccc(-c4ccc(CNC(=O)c5nc(C(C)(C)C)no5)c(F)c4)c23)CC1	criterion met
3) CC(C)N1CC[C@H](Nc2n[nH]c3nccc(-c4ccc(CNC(=O)c5nc(C(C)(C)C)no5)c(F)c4)c23)C1	criterion met
4) C[C@@H](NC(=O)c1noc(C(C)(C)C)n1)c1ccc(-c2ccnc3[nH]nc(N[C@@H]4CCN(C=O)C4)c23)cc1	criterion met
5) C=CC(=O)N1CC[C@@H](Nc2n[nH]c3nccc(-c4cccc(NC(=O)c5ccc(C(C)(C)C)cc5)c4C)c23)C1	criterion met

Ask: Exam item: decide whether the reported TEC/Btk for C=CC(=O)N[C@@H]1CCN(c2n[nH]c3nccc(-c4ccc(CNC(=O)c5cc(C(C)C)no5)c(F)c4)c23)C1 is at least 200.
Result: criterion met

Ask: Could you please find out whether CC(C)(C)c1nc(C(=O)NCc2ccc(-c3ccnc4[nH]nc(N[C@H]5CC[C@@H](N)CC5)c34)cc2F)no1 has TEC/Btk that meets 200 or exceeds it?
Result: criterion not met

Ask: Is reported TEC/Btk greater than or equal to 200 here: C[C@H]1CC[C@@H](Nc2n[nH]c3nccc(-c4ccc(CNC(=O)c5noc(C(C)(C)C)n5)c(F)c4)c23)CN1S(=O)(=O)C1CC1
Result: criterion met

Ask: Evaluate CC(=O)N[C@@H]1CCN(c2n[nH]c3nccc(-c4ccc(CNC(=O)c5cc(C(C)C)no5)c(F)c4)c23)C1 : TEC/Btk at minimum 200?
Result: criterion met

Ask: Hello, I need to know if CC(C)(C)c1nc(C(=O)NC2(c3ccc(-c4ccnc5[nH]nc(NC6CCCN(C=O)C6)c45)cc3)CC2)no1 (stereo not drawn) has measured TEC/Btk not below 200. Thanks!
Result: criterion not met
